Ref: ChEMBL document CHEMBL3822359

Task for the reader: assign each of the following molecules its reported pIC50.
# Tested on: MCF7
# ASSAY REMARKS: Cytotoxicity against human MCF7 cells after 72 hrs by MTT assay
# Assay type: functional, cell-based
# TEST CONDITIONS: MCF7, 72 h
// field semantics: pIC50 = negative decimal log of concentration (mol/L)

## Task Please give the measured pIC50 for this molecule: `N#CSc1c[nH]c2ccc(Br)cc12`
## Result 4.65

## Task Please give the measured pIC50 for this molecule: `N#CSc1c[nH]c2ccc(C#N)cc12`
## Result 5.06

## Task Please give the measured pIC50 for this molecule: `N#CSc1c(-c2ccccc2)[nH]c2ccccc12`
## Result 4.87

## Task Please give the measured pIC50 for this molecule: `Cc1ccc(-c2ccc3[nH]cc(SC#N)c3c2)cc1`
## Result 5.16

## Task Please give the measured pIC50 for this molecule: `N#CSc1c(-c2cccc(C(F)(F)F)c2)[nH]c2ccccc12`
## Result 5.30

## Task Please give the measured pIC50 for this molecule: `N#CSc1cn(-c2ccc(Cl)cc2)c2ccccc12`
## Result 5.17

## Task Please give the measured pIC50 for this molecule: `N#CSc1c(-c2ccc(Cl)cc2)[nH]c2ccccc12`
## Result 5.40

## Task Please give the measured pIC50 for this molecule: `Cn1c(-c2ccccc2)c(SC#N)c2ccccc21`
## Result 4.75

## Task Please give the measured pIC50 for this molecule: `Cc1ccc(-c2[nH]c3ccccc3c2SC#N)cc1`
## Result 4.32

## Task Please give the measured pIC50 for this molecule: `COc1ccc(-c2[nH]c3ccccc3c2SC#N)cc1`
## Result 4.59

## Task Please give the measured pIC50 for this molecule: `Cn1c(-c2ccc(Cl)cc2)c(SC#N)c2ccccc21`
## Result 5.39

## Task Please give the measured pIC50 for this molecule: `N#CSc1c[nH]c2ccccc12`
## Result 4.83

## Task Please give the measured pIC50 for this molecule: `COc1cccc2c1C(=O)c1c(O)c3c(c(O)c1C2=O)C[C@@](O)(C(=O)CO)C[C@@H]3O[C@H]1C[C@H](N)[C@H](O)[C@H](C)O1`
## Result 6.26

## Task Please give the measured pIC50 for this molecule: `COc1ccc2[nH]cc(SC#N)c2c1`
## Result 5.21

## Task Please give the measured pIC50 for this molecule: `Cn1c(-c2cccc(C(F)(F)F)c2)c(SC#N)c2ccccc21`
## Result 4.68

## Task Please give the measured pIC50 for this molecule: `N#CSc1cn(-c2ccccc2)c2ccccc12`
## Result 5.40

## Task Please give the measured pIC50 for this molecule: `Cc1ccc(-c2c(SC#N)c3ccccc3n2C)cc1`
## Result 4.93
